Tested on: A549 NSCLC
Experiment: NCI tumour cell line growth inhibition, 48 h
assay-readout: TGI

CSc1nc2nc(C(O)C(O)C(O)CO)cnc2c(=O)[nH]1 (stereo not drawn) yielded TGI of > 100 µM

`CCCCCCSc1nc(COC(=O)NC)c(COC(=O)NC)n1C` yielded TGI of > 100 µM

`COC(=O)c1ccc2c(C(=Nc3ccc(N(C)C(=O)CN4CCN(C)CC4)cc3)c3ccccc3)c(O)[nH]c2c1` yielded TGI of > 100 µM

`COc1cc(/C=C/c2cc(O)c(C/C=C(\C)CC/C=C(\C)CO)c(O)c2)cc2c1O[C@]1(C)CC[C@@H](O)C(C)(C)[C@H]1C2` yielded TGI of > 62.5 µM

CC1CC(Br)C(=O)O1 (stereo not drawn) yielded TGI of > 100 µM

`Cc1c/c(=N/NC(=O)c2ccncc2)n2nc(N)sc2n1` yielded TGI of > 100 µM

`COc1ccc2nc3c([N+](=O)[O-])ccc(NCCN(C)C)c3c(NCCN(C)C)c2c1` yielded TGI of 4.26 µM

COc1cc(NC(C)CCCN2C(=O)c3ccccc3C2=O)c2ncccc2c1OC (stereo not drawn) yielded TGI of > 100 µM

COC1=CC2CCN3Cc4cc5c(cc4C(C1O)C23)OCC5 (stereo not drawn) yielded TGI of 8.19 µM

CCCCC(C(=O)CCC(=O)Nc1ccc(Cl)cc1)C(=O)C(C)C (stereo not drawn) yielded TGI of > 100 µM

`COc1ccc(Nc2nc3ccc(C(F)(F)F)cc3nc2C(=O)O)cc1` yielded TGI of > 100 µM

O=C(NC(Cc1ccc(I)cc1)C(=O)O)c1ccc(Cl)cc1 (stereo not drawn) yielded TGI of > 100 µM

`CNc1ncc2cc(-c3cc(NC(=O)NCCC(C)(C)C)c(F)cc3C)c(C)nc2n1` yielded TGI of > 100 µM

`N=c1oc2ccc(Cl)cc2cc1C(N)=O` yielded TGI of > 100 µM

`CCSc1nnc(-c2ccccc2)nc1Cc1ccc(OC)cc1` yielded TGI of > 100 µM

`COc1cc(NC(=O)c2ccccc2Nc2ccnc(C(F)(F)F)c2)cc(OC)c1OC` yielded TGI of > 100 µM

`C=C(CO)[C@H]1Oc2ccc(C(C)=O)cc2[C@@H]1O` yielded TGI of > 100 µM

`O=c1c2ccccc2nc2sc(/N=C/C=C/c3ccccc3)nn12` yielded TGI of > 100 µM

COC(CC1(OC)OC(=O)C=C1N)OC (stereo not drawn) yielded TGI of > 100 µM

CCOC(=O)CC(NCc1ccc(N=Cc2nc3ccc(C(F)(F)F)cc3nc2-c2ccccc2)cc1)C(=O)OCC (stereo not drawn) yielded TGI of > 100 µM

`N=C(N)SCc1cccc([N+](=O)[O-])c1` yielded TGI of > 100 µM

`CNc1ncnc2c1cnn2CCCCO` yielded TGI of > 100 µM

CC(NC(=O)OC(C)(C)C)C(=O)NC(Cc1ccccc1)C(=O)NCC(=O)Oc1c(Cl)c(Cl)c(Cl)c(Cl)c1Cl (stereo not drawn) yielded TGI of 48.1 µM
